Values from the OPERA property sets (Mansouri et al. 2018)

# boiling point values compiled below
RECORDED_ENDPOINT: boiling point (°C)

MOLECULE: CCCCCCCCCCCCCCCCCCCCCCCC
RECORDED_MEASUREMENT: 391
//
MOLECULE: CC(C)(OOC(C)(C)c1ccccc1)c1ccccc1
RECORDED_MEASUREMENT: 396
//
MOLECULE: COc1ccccc1Br
RECORDED_MEASUREMENT: 216
//
MOLECULE: CC(Br)C(Br)CBr (centres undefined)
RECORDED_MEASUREMENT: 220
//
MOLECULE: Nc1cccc(N)c1N
RECORDED_MEASUREMENT: 336
//
MOLECULE: O=CC1CCCC1
RECORDED_MEASUREMENT: 134
//
MOLECULE: C=C1[C@H]2CC[C@@H]3[C@H]2C(C)(C)CCC[C@]13C
RECORDED_MEASUREMENT: 258
//
MOLECULE: CCCCOC(=O)c1ccccc1
RECORDED_MEASUREMENT: 250
//
MOLECULE: CC(Cc1ccccc1)c1ccccc1 (centres undefined)
RECORDED_MEASUREMENT: 280
//
MOLECULE: O=[N+]([O-])c1cc(C(F)(F)F)ccc1Cl
RECORDED_MEASUREMENT: 222
//
MOLECULE: CCc1ccc(Br)cc1
RECORDED_MEASUREMENT: 204
//
MOLECULE: BrCI
RECORDED_MEASUREMENT: 140
//
MOLECULE: CCCCCCCOC(=O)CCCCCC
RECORDED_MEASUREMENT: 277
//
MOLECULE: CC(C)(C)C(C)(C)C
RECORDED_MEASUREMENT: 106
//
MOLECULE: CC#CC(=O)O
RECORDED_MEASUREMENT: 203
//
MOLECULE: O=CC1CCC=CO1 (centres undefined)
RECORDED_MEASUREMENT: 146
//
MOLECULE: CCO[Si](Cl)(OCC)OCC
RECORDED_MEASUREMENT: 156
//
MOLECULE: Brc1cscc1Br
RECORDED_MEASUREMENT: 222
//
MOLECULE: COCCOC(C)=O
RECORDED_MEASUREMENT: 143
//
MOLECULE: Clc1cccs1
RECORDED_MEASUREMENT: 128
//
MOLECULE: C1=C(c2ccccc2)CCCC1
RECORDED_MEASUREMENT: 252
//
MOLECULE: CC(C)(N)c1ccccc1
RECORDED_MEASUREMENT: 196
//
MOLECULE: CCCC(=O)Oc1ccccc1
RECORDED_MEASUREMENT: 225
//
MOLECULE: OCCCF
RECORDED_MEASUREMENT: 128
//
MOLECULE: CCCCCCCCC(=O)Cl
RECORDED_MEASUREMENT: 215
//
MOLECULE: FC(F)(F)c1ccc(Cl)cc1Cl
RECORDED_MEASUREMENT: 178
//
MOLECULE: Brc1cccc2ccccc12
RECORDED_MEASUREMENT: 281
//
MOLECULE: C=COCCO
RECORDED_MEASUREMENT: 142
//
MOLECULE: CC1CCC(O)CC1 (centres undefined)
RECORDED_MEASUREMENT: 172

###

RECORDED_ENDPOINT: melting point (°C)

COMPOUND: NNc1c(F)c(F)cc(F)c1F
RECORDED_ENDPOINT: melting point
RECORDED_MEASUREMENT: 92
--
COMPOUND: Fc1c(F)c(F)c(-c2c(F)c(F)c(F)c(F)c2F)c(F)c1F
RECORDED_ENDPOINT: melting point
RECORDED_MEASUREMENT: 67.5
--
COMPOUND: CC(C)(C)CCC(C)(C)C
RECORDED_ENDPOINT: melting point
RECORDED_MEASUREMENT: -12.6
--
COMPOUND: Nc1cc(S(N)(=O)=O)ccc1S(=O)(=O)CCCO
RECORDED_ENDPOINT: melting point
RECORDED_MEASUREMENT: 137
--
COMPOUND: CCC(C(=O)NC(N)=O)c1ccccc1 (centres undefined)
RECORDED_ENDPOINT: melting point
RECORDED_MEASUREMENT: 162
--
COMPOUND: BrC(Br)C(Br)(Br)Br
RECORDED_ENDPOINT: melting point
RECORDED_MEASUREMENT: 56.5
--
COMPOUND: CCOc1ccccc1C(=O)O
RECORDED_ENDPOINT: melting point
RECORDED_MEASUREMENT: 20.7
--
COMPOUND: CC(=O)Nc1ccc(OC(=O)c2ccccc2O)cc1
RECORDED_ENDPOINT: melting point
RECORDED_MEASUREMENT: 187
--
COMPOUND: O=C1C(=O)c2ccccc2C(Cl)=C1Cl
RECORDED_ENDPOINT: melting point
RECORDED_MEASUREMENT: 184
--
COMPOUND: Oc1c(Br)cc(Br)c(Br)c1Br
RECORDED_ENDPOINT: melting point
RECORDED_MEASUREMENT: 114
--
COMPOUND: COC(=O)C1CC(=O)N(C)C1 (centres undefined)
RECORDED_ENDPOINT: melting point
RECORDED_MEASUREMENT: 15
--
COMPOUND: NC(=O)/C=C/C(=O)[O-]
RECORDED_ENDPOINT: melting point
RECORDED_MEASUREMENT: 172
--
COMPOUND: CCCCOC(=O)CC(C)=O
RECORDED_ENDPOINT: melting point
RECORDED_MEASUREMENT: -35.6
--
COMPOUND: CCCCCCCCOC(=O)CCCCCC
RECORDED_ENDPOINT: melting point
RECORDED_MEASUREMENT: -22.5
--
COMPOUND: CC(=O)CC(=O)CC(C)=O
RECORDED_ENDPOINT: melting point
RECORDED_MEASUREMENT: 49
--
COMPOUND: CCCCC(=O)O[C@]1(C(=O)CO)[C@@H](C)C[C@H]2[C@@H]3CCC4=CC(=O)C=C[C@]4(C)[C@@]3(F)[C@@H](O)C[C@@]21C
RECORDED_ENDPOINT: melting point
RECORDED_MEASUREMENT: 184
--
COMPOUND: Nc1cccc(-n2ccccc2=O)c1
RECORDED_ENDPOINT: melting point
RECORDED_MEASUREMENT: 183
--
COMPOUND: CC(C)(C(=O)O)C(C)(C)C(=O)O
RECORDED_ENDPOINT: melting point
RECORDED_MEASUREMENT: 200
--
COMPOUND: Cc1ccc(C(C)C)c(O)c1
RECORDED_ENDPOINT: melting point
RECORDED_MEASUREMENT: 51.5
--
COMPOUND: C#C[C@]1(O)CC[C@H]2[C@@H]3CCC4=CCCC[C@@H]4[C@H]3C(=C)C[C@@]21CC
RECORDED_ENDPOINT: melting point
RECORDED_MEASUREMENT: 110
--
COMPOUND: CCN(CC)c1ccc(Cl)cc1
RECORDED_ENDPOINT: melting point
RECORDED_MEASUREMENT: 45.5
--
COMPOUND: CCCCCCCCCCF
RECORDED_ENDPOINT: melting point
RECORDED_MEASUREMENT: -35
--
COMPOUND: CC#CC(=O)O
RECORDED_ENDPOINT: melting point
RECORDED_MEASUREMENT: 78
--
COMPOUND: CC(=O)Nc1ccccc1F
RECORDED_ENDPOINT: melting point
RECORDED_MEASUREMENT: 78
--
COMPOUND: CCOC(=O)c1ccccc1O
RECORDED_ENDPOINT: melting point
RECORDED_MEASUREMENT: 1
--
COMPOUND: CC(=O)N(c1ccccc1)c1ccccc1
RECORDED_ENDPOINT: melting point
RECORDED_MEASUREMENT: 103
--
COMPOUND: NC(=O)OCC(O)c1ccccc1 (centres undefined)
RECORDED_ENDPOINT: melting point
RECORDED_MEASUREMENT: 112
--
COMPOUND: O=C(CCc1ccccc1)CCc1ccccc1
RECORDED_ENDPOINT: melting point
RECORDED_MEASUREMENT: 13.5
--
COMPOUND: OCC1c2ccccc2-c2ccccc21
RECORDED_ENDPOINT: melting point
RECORDED_MEASUREMENT: 106
--
COMPOUND: CCOCCOCC
RECORDED_ENDPOINT: melting point
RECORDED_MEASUREMENT: -74
--
COMPOUND: O=C(O)C1CCCC1
RECORDED_ENDPOINT: melting point
RECORDED_MEASUREMENT: -7
--
COMPOUND: O=C1CC[C@@H](C(=O)O)N1
RECORDED_ENDPOINT: melting point
RECORDED_MEASUREMENT: 185
--
COMPOUND: CC(C)(SC(=O)N1CCCCC1)c1ccccc1
RECORDED_ENDPOINT: melting point
RECORDED_MEASUREMENT: 39
--
COMPOUND: O=C(O)c1ccccc1Cl
RECORDED_ENDPOINT: melting point
RECORDED_MEASUREMENT: 140
--
COMPOUND: C[C@]12CC[C@H](O)CC1=CC[C@@H]1[C@@H]2CC[C@@]2(C)[C@H]1CC[C@]2(C)O
RECORDED_ENDPOINT: melting point
RECORDED_MEASUREMENT: 206
--
COMPOUND: COc1nc(C)nc(NC(=O)NS(=O)(=O)c2ccccc2OCCCl)n1
RECORDED_ENDPOINT: melting point
RECORDED_MEASUREMENT: 186
--
COMPOUND: CC(C)c1cc(Oc2ccccc2)cc(C(C)C)c1NC(=S)NC(C)(C)C
RECORDED_ENDPOINT: melting point
RECORDED_MEASUREMENT: 146
--
COMPOUND: NC(=S)N=C(N)N
RECORDED_ENDPOINT: melting point
RECORDED_MEASUREMENT: 172
--
COMPOUND: Oc1ccccc1-c1ccccc1O
RECORDED_ENDPOINT: melting point
RECORDED_MEASUREMENT: 109
